experiment_description: Cmax in fasted Sprague-Dawley rat at 21 mg/kg, po by LC-MS/MS analysis
Assay type: ADME, organism-based
test_context: in vivo

{"columns": ["query_smiles", "Cmax, ng/mL"],
 "data": [
  ["CC(=O)O[C@H]1[C@H](n2ccc(=O)n(COC(=O)c3cccnc3)c2=O)O[C@](F)(COC(=O)C(C)C)[C@H]1OC(C)=O", 2190]
]}

* * *

experiment_description: AUC (0 to t) in fasted Sprague-Dawley rat at 23 mg/kg, po by LC-MS/MS analysis
Assay type: ADME, organism-based
test_context: in vivo
outcome_measure: AUC(0-t) (ng·h/mL)

{"columns": ["query_smiles", "measured_value"],
 "data": [
  ["CC(C)C(=O)OC[C@@]1(F)O[C@@H](n2ccc(=O)n(COC(=O)c3cccnc3)c2=O)[C@H](OC(=O)C(C)C)[C@@H]1OC(=O)C(C)C", 11800]
]}
